Taken from patent US20260274876A1.

- METHOD DESCRIPTION: Intestinal mucosal permeation using Caco-2 cell monolayers
- COND: human, Caco-2, pH 7.4, Percentage recovery (%) A→B, Caco-2, A→B
READOUT NAME: recovery at 2 h, 5 μM (%)
Response body: numeric value in %, unit text excluded.

| MOLECULE | recovery at 2 h, 5 μM / % |
| --- | --- |
| CN(C)CCc1c[nH]c2cccc(O)c12 [Psilocin, 4-hydroxy-N,N-dimethyltryptamine, reference compound] | 100 |
| CN1CCC[C@@H]1Cc1c[nH]c2cccc(OC(=O)CCCC(=O)Oc3cccc4[nH]cc(C[C@H]5CCCN5C)c34)c12 | 94.7 |
| COc1cc2nc(N3CCN(C(=O)c4ccco4)CC3)nc(N)c2cc1OC | 79.5 |
| C[C@H]1O[C@@H](O[C@H]2[C@@H](O)C[C@H](O[C@H]3[C@@H](O)C[C@H](O[C@H]4CC[C@@]5(C)[C@H](CC[C@@H]6[C@@H]5C[C@@H](O)[C@]5(C)[C@@H](C7=CC(=O)OC7)CC[C@]65O)C4)O[C@@H]3C)O[C@@H]2C)C[C@H](O)[C@@H]1O | 86.6 |
| CN(C)CCc1c[nH]c2cccc(OP(=O)(O)O)c12 | 41.4 |
| CC(C)NCC(O)COc1cccc2ccccc12 (centres unmarked) | 91.3 |

Next molecule, recovery at 2 h, 5 μM to be filled in.
Return value of recovery at 2 h, 5 μM for input CN1CCC[C@@H]1Cc1c[nH]c2cccc(O)c12 , no commentary. 82.7
